Hello, the source for this data is patent US7432260B2, in case you need it.

Listing of entries alongside the reported IC50.
Measured on: CDK7/cyclin H (Homo sapiens)
Assay details: CDK7 assay
Assay type: biochemical
Measurement context: Table 2; read-out: Kinase Inhibition IC50 CDK7 cyclin H
A number alone suffices; assume µM.

Examples with their reported IC50 follow.
Qu. Fill in the blank: the reported IC50 of `CCNc1nc(C)c(-c2ccnc(Nc3ccc(N4CCOCC4)cc3)n2)s1` is ____.
Ans. 12

Qu. Requested field: IC50. Item: `Cc1nc(NC(=O)CCl)sc1-c1ccnc(Nc2cccc(Cl)c2)n1`
Ans. 3.2

Alright, here's another molecule for you.
Qu. Which IC50 value belongs to `Cc1nc(NC(=O)CNCCOCCO)sc1-c1ccnc(Nc2ccc(N(C)C)cc2)n1` ?
Ans. 1.2

---

Measured on: CDK4/cyclin D1 (Homo sapiens, UniProt P11802)
Sequence (P11802 whole entry): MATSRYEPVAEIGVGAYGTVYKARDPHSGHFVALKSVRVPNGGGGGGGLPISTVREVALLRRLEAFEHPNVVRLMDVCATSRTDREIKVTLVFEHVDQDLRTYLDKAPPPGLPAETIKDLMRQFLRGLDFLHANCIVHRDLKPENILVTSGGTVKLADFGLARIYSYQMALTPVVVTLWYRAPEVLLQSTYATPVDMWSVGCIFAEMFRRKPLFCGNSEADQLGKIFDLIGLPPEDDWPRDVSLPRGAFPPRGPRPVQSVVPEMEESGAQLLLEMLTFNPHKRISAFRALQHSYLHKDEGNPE
Sequence (P24385 whole entry partner): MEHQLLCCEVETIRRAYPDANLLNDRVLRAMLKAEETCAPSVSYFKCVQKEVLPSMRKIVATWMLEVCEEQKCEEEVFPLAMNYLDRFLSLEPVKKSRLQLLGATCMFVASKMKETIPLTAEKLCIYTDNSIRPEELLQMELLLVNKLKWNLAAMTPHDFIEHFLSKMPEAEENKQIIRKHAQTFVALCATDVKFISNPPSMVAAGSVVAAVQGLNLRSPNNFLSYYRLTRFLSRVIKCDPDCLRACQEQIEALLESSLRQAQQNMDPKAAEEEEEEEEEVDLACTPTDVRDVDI
Assay details: Kinase assay CDK4/cyclin D1
Assay type: biochemical
Measurement context: Table 2; read-out: Kinase Inhibition IC50 CDK4 cyclin D1
Label YES when IC50 < 1000 nM; otherwise NO.

Example results:
Qu. Please state whether IC50 is below 1000 nM for Cc1nc(NC(=O)CCBr)sc1-c1ccnc(Nc2ccc(F)cc2)n1 [Compound 20]
Ans. YES

Qu. A record lists Cc1nc(NC(=O)CCCN)sc1-c1ccnc(Nc2cccc([N+](=O)[O-])c2)n1 [Compound 18] . Is its IC50 below 1000 nM?
Ans. NO

More entries:
Qu. is_below(IC50, 1000 nM) for COc1ccc(Nc2nccc(-c3sc(NC(=O)CCN4CCN(C)CC4)nc3C)n2)cc1 [Compound 40] ?
Ans. NO

Qu. Just wondering, is IC50 of CCN(CC)CCNCCC(=O)Nc1nc(C)c(-c2ccnc(Nc3ccc(Cl)cc3)n2)s1 [Compound 36] below 1000 nM?
Ans. NO

Qu. Does this molecule meet the criterion IC50 < 1000 nM? CNc1nc(C)c(-c2ccnc(Nc3ccc(N4CCN(C(C)=O)CC4)cc3)n2)s1 [Compound 61]
Ans. YES

Qu. Quick check: does Cc1nc(C)c(-c2ccnc(Nc3ccc(NC(=O)Cn4cncn4)cc3)n2)s1 [Compound 52] have IC50 under 1000 nM?
Ans. YES

Qu. Check if IC50 falls below 1000 nM for Cc1nc(C)c(-c2ccnc(Nc3ccc(NC(=O)CCl)cc3)n2)s1 [Compound 50] .
Ans. YES

---

pIC50: −log10 of the molar value.
Quick record: pIC50, UniProt:P17252.

Example entries begin here.
Qu. Returns the measured pIC50 for the input compound. Input: `Cc1nc(NC(=O)[C@H](N)[C@@H](C)O)sc1-c1ccnc(Nc2cccc([N+](=O)[O-])c2)n1`
Ans. < 4.00

Qu. For `CNc1nc(C)c(-c2ccnc(Nc3ccc(N4CCN(Cc5ccccc5)CC4)cc3)n2)s1` , what is its reported pIC50?
Ans. < 4.00

Qu. Returns the measured pIC50 for the input compound. Input: `CC[C@@H](N)C(=O)Nc1nc(C)c(-c2ccnc(Nc3cccc([N+](=O)[O-])c3)n2)s1`
Ans. 4.28

Others:
Qu. Can you share its pIC50? I mean this compound: `CNc1nc(C)c(-c2ccnc(Nc3ccc(N4CCOCC4)cc3)n2)s1`
Ans. < 4.00

---

Entries and their pIC50 values follow.
Measured on: CDK2/cyclin E (Homo sapiens)
Assay details: Kinase assay CDK2/cyclin E
Type: biochemical
Measurement context: Table 3 selectivity panel; read-out: Kinase specificity IC50 CDK2/E
Please note pIC50 is a logarithmic value: minus log10 of concentration in mol/L. Answer with that number alone.

# annotated cases, reported pIC50 shown
Qu. Given the entry CC[C@@H](N)C(=O)Nc1nc(C)c(-c2ccnc(Nc3cccc([N+](=O)[O-])c3)n2)s1 [Compound 16] , report its measured pIC50.
Ans. 6.46

Qu. Look at this compound and give its reported pIC50. CNc1nc(C)c(-c2ccnc(Nc3ccc(N4CCN(Cc5ccccc5)CC4)cc3)n2)s1 [Compound 11]
Ans. 6.59

// next entry
Qu. Would you kindly share the measured pIC50 for Cc1nc(NC(=O)[C@H](N)[C@@H](C)O)sc1-c1ccnc(Nc2cccc([N+](=O)[O-])c2)n1 [Compound 15] ?
Ans. 6.82

---

In this section, each of the compounds is paired with its reported IC50.
Measured on: CDK7/cyclin H (Homo sapiens, UniProt P50613)
Sequence (P50613 whole entry): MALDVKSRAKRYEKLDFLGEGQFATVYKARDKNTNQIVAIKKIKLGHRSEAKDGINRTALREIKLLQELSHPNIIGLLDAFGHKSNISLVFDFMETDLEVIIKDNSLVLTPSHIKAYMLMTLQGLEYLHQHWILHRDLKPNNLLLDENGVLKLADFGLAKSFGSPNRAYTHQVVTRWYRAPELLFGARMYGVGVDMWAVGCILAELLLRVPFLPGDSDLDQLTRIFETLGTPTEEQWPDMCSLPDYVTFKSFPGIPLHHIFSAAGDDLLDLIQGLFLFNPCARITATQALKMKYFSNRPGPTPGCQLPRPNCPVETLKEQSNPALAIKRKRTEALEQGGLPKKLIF
Assay details: CDK7 assay
Format: biochemical
Measurement context: Table 2; read-out: Kinase Inhibition IC50 CDK7 cyclin H
State just the number; it will be interpreted in nM.

The cases that follow already have their IC50 on record.
Qu. Sample CNc1nc(C)c(-c2ccnc(Nc3ccc(N4CCN(Cc5ccccc5)CC4)cc3)n2)s1 [Compound 11] — what was its IC50?
Ans. 19

Qu. Given the compound CNc1nc(C)c(-c2ccnc(Nc3ccc(Cl)c(CO)c3)n2)s1 [Compound 73] , what is its reported IC50?
Ans. 2000

Qu. Sample CNc1nc(C)c(-c2ccnc(Nc3ccc(N4CCOCC4)cc3)n2)s1 [Compound 3] — what was its IC50?
Ans. 106000

Qu. Which value of IC50 has been reported for Cc1nc(NC(=O)CCN)sc1-c1ccnc(Nc2cccc([N+](=O)[O-])c2)n1 [Compound 13] in the records?
Ans. 370

Qu. Fill in: IC50 of Cc1nc(C)c(-c2ccnc(Nc3ccc(N4CCN(C)CC4)cc3)n2)s1 [Compound 12] is ___
Ans. 1100

Qu. Item under review: Cc1nc(C)c(-c2ccnc(Nc3ccc(S(C)(=O)=O)cc3)n2)s1 [Compound 85] . Reported IC50?
Ans. 11000

Qu. Data request, read-out IC50, for CNc1nc(C)c(-c2ccnc(Nc3cccc(CNC(C)=O)c3)n2)s1 [Compound 63]
Ans. 20000

Qu. Dear colleague, I am looking for the recorded IC50 of the following compound: CNc1nc(C)c(-c2ccnc(Nc3ccc(N4CCN(C(C)=O)CC4)cc3)n2)s1 [Compound 61]
Ans. 2300

Qu. Which IC50 value belongs to Cc1nc(C)c(-c2ccnc(Nc3ccc(NC(=O)Cn4cncn4)cc3)n2)s1 [Compound 52] ?
Ans. 2000

Qu. Recorded IC50 for CC(=O)N1CCN(c2ccc(Nc3nccc(-c4sc(C)nc4C)n3)cc2)CC1 [Compound 5] , please?
Ans. 5600

More entries:
Qu. Return reported IC50; argument: Cc1nc(C)c(-c2ccnc(Nc3ccc(NC(=O)CN4CCOCC4)cc3)n2)s1 [Compound 51]
Ans. 9600

Qu. Recorded IC50 of Cc1nc(C)c(-c2ccnc(Nc3ccc(Cl)c(CO)c3)n2)s1 [Compound 72] , please.
Ans. 9600

Qu. Given the compound CCN(CC)CCNCCC(=O)Nc1nc(C)c(-c2ccnc(Nc3ccc(Cl)cc3)n2)s1 [Compound 36] , what is its reported IC50?
Ans. 4000

Qu. Item Cc1nc(N2CCOCC2)sc1-c1ccnc(Nc2cccc(O)c2)n1 [Compound 55] has what recorded IC50?
Ans. 2200

Qu. Fill in the blank: the reported IC50 of Cc1nc(N)sc1-c1ccnc(Nc2ccc(S(C)(=O)=O)cc2)n1 [Compound 76] is ____.
Ans. 11000

Qu. Param item = Cc1nc(NC(=O)[C@H](N)[C@@H](C)O)sc1-c1ccnc(Nc2cccc([N+](=O)[O-])c2)n1 [Compound 15] ; retrieve measured IC50.
Ans. 340

Qu. Please give the measured IC50 for this compound: CC[C@@H](N)C(=O)Nc1nc(C)c(-c2ccnc(Nc3cccc([N+](=O)[O-])c3)n2)s1 [Compound 16]
Ans. 1100

Qu. Looking for the measured IC50 of CNc1nc(C)c(-c2ccnc(Nc3ccc(CCO)cc3)n2)s1 [Compound 59] , can you help?
Ans. 2600

---

Measured on: CDK2/cyclin A (Homo sapiens)
Assay details: Kinase assay CDK2/cyclin A
Format: biochemical
Measurement context: Table 3 selectivity panel; read-out: Kinase specificity IC50 CDK2/A
Test readout: pIC50
Recall that pIC50 is obtained by taking minus log10 of the concentration measured in molar.

Qu. Which pIC50 is listed for `CNc1nc(C)c(-c2ccnc(Nc3ccc(N4CCN(Cc5ccccc5)CC4)cc3)n2)s1` ?
Ans. 5.66

Qu. I am curious: what pIC50 value has been reported for `Cc1nc(NC(=O)[C@H](N)[C@@H](C)O)sc1-c1ccnc(Nc2cccc([N+](=O)[O-])c2)n1` ?
Ans. 6.40

Now take the following compound into account.
Qu. Report pIC50 for `CC[C@@H](N)C(=O)Nc1nc(C)c(-c2ccnc(Nc3cccc([N+](=O)[O-])c3)n2)s1` please.
Ans. 6.19

---

Measured on: CDK9/cyclin T1 (Homo sapiens, UniProt P50750)
Sequence (P50750 whole entry): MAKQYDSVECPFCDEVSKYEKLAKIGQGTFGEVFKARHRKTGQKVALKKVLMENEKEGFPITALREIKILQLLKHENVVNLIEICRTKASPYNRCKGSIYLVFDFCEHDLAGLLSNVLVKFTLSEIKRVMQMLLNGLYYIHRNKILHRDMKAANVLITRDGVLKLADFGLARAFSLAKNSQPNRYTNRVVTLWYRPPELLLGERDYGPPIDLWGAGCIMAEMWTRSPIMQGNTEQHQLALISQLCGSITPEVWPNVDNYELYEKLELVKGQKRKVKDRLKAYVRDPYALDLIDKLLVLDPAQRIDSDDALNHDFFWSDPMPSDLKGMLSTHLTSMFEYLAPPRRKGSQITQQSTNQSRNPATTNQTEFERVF
Sequence (O60563 whole entry partner): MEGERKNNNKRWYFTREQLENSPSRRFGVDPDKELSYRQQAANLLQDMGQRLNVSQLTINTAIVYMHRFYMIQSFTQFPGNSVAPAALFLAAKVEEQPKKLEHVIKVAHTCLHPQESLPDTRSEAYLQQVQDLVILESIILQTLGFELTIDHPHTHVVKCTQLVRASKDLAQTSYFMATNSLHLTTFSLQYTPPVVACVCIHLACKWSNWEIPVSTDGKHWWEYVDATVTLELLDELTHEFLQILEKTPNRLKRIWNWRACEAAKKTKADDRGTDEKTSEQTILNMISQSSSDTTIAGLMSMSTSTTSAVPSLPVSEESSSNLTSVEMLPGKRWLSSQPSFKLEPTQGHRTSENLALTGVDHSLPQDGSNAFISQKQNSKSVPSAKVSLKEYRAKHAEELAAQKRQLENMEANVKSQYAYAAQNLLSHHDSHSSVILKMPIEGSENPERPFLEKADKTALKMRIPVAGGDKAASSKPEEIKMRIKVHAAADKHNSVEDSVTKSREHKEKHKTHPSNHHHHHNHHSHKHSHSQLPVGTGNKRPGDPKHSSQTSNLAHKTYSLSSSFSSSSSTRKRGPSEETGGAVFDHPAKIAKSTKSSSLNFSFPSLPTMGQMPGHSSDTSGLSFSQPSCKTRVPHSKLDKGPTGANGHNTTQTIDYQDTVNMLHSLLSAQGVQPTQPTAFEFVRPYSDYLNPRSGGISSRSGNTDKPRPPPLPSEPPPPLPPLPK
Assay details: CDK9 assay
Assay type: biochemical
Measurement context: Table 2; read-out: Kinase Inhibition IC50 CDK9 cyclin T1
Test readout: pIC50
Reminder that pIC50 is minus the log10 of a molar concentration.

Worked set:
Qu. # input molecule: Cc1nc(C)c(-c2ccnc(Nc3ccc(N4CCN(CCO)CC4)cc3)n2)s1 [Compound 9] ; wanted: its pIC50
Ans. 6.68

Qu. GET /values?readout=pIC50&item= Cc1nc(NC(=O)CCNCCN2CCOCC2)sc1-c1ccnc(Nc2ccc(Cl)cc2)n1 [Compound 37]
Ans. 5.20

Qu. Need pIC50 of CNc1nc(C)c(-c2ccnc(Nc3ccc(OCCOC)c([N+](=O)[O-])c3)n2)s1 [Compound 77] , thanks.
Ans. 6.59

***
Qu. Query: pIC50; subject: CCNc1nc(C)c(-c2ccnc(Nc3ccc(N4CCOCC4)cc3)n2)s1 [Compound 4]
Ans. 5.74

Qu. State the recorded pIC50 for this entry: Cc1nc(N2CCOCC2)sc1-c1ccnc(Nc2ccc(N(C)C)cc2)n1 [Compound 57]
Ans. 4.92
